Experiment: Efflux ratio of apparent permeability in human Caco2 cells by LC-MS/MS analysis
Assay type: ADME, cell-based
Conditions: Caco-2
Decide by efflux ratio: equal to or exceeding 8 means 1, less means 0.

1. CN(C)C1CCN(C(=O)c2ccc(-c3ccc4ncc(-c5ccc(C#N)cc5)n4n3)cc2)CC1
1
2. N#Cc1ccc(-c2cnc3ccc(-c4ccc(C(=O)N5CCNCC5)cc4)nn23)cc1
1
3. CN(C)C1CCN(C(=O)c2ccc(-c3cn4c(-c5ccc(C#N)cc5)cnc4cn3)cc2)CC1
0
4. CN1CCN(C(=O)c2ccc(-c3ccc4ncc(-c5ccc(C#N)cc5)n4c3)cc2)CC1
0
5. N#Cc1ccc(-c2cnc3cnc(-c4ccc(C(=O)N5CCOCC5)cc4)cn23)cc1
0
6. CN1CCN(C(=O)c2ccc(-c3ccc4ncc(-c5ccc(C#N)cc5)n4n3)cc2)CC1
0

---

Test: Octanol-phosphate buffer partition coefficient, logD of compound at pH 7.4 by HPLC-UV analysis
Format: physicochemical
Metric: logD

1) CN1CCN(C(=O)c2ccc(-c3cn4c(-c5ccc(C#N)cc5)cnc4cn3)cc2)CC1
1.67
2) N#Cc1ccc(-c2cnc3ccc(-c4ccc(C(=O)N5CCNCC5)cc4)nn23)cc1
2
3) NC(=O)c1ccc(-c2cn3c(-c4ccc(O)cc4)cnc3cn2)cc1
2.03
4) CC(=O)N1CCN(C(=O)c2ccc(-c3cn4c(-c5ccc(O)cc5)cnc4cn3)cc2)CC1
1.68
5) CN1CCN(C(=O)c2ccc(-c3ccc4ncc(-c5ccc(C#N)cc5)n4n3)cc2)CC1
2.82
6) O=C(c1ccc(-c2cn3c(-c4ccc(O)cc4)cnc3cn2)cc1)N1CCOCC1
2.21
7) N#Cc1ccc(-c2cnc3ccc(-c4ccc(C(=O)N5CCOCC5)cc4)nn23)cc1
2.1
8) CN1CCN(C(=O)c2ccc(-c3cn4c(-c5ccc(C(=O)O)cc5)cnc4cn3)cc2)CC1
-1.37
9) N#Cc1ccc(-c2cnc3ccc(-c4ccc(C(=O)N5CCOCC5)cc4)cn23)cc1
2.61
10) CN1CCN(C(=O)c2ccc(-c3cn4c(-c5ccc(C(N)=O)cc5)cnc4cn3)cc2)CC1
0.98
11) CN1CCN(C(=O)c2ccc(-c3cn4c(-c5ccc(Cl)cc5)cnc4cn3)cc2)CC1
2.96
12) CN(C)C1CCN(C(=O)c2ccc(-c3ccc4ncc(-c5ccc(C#N)cc5)n4n3)cc2)CC1
2.19
13) CN1CCN(C(=O)c2ccc(-c3cn4c(-c5ccc(C(F)(F)F)cc5)cnc4cn3)cc2)CC1
2.95
14) N#Cc1ccc(-c2cnc3cnc(-c4ccc(C(=O)N5CCOCC5)cc4)cn23)cc1
1.77
15) CN1CCN(C(=O)c2ccc(-c3ccc4ncc(-c5ccc(C#N)cc5)n4c3)cc2)CC1
2.48
16) CN1CCN(C(=O)c2ccc(-c3cn4c(-c5ccc(O)cc5)cnc4cn3)cc2)CC1
2.25
17) CN1CCN(C(=O)c2ccc(-c3cn4c(-c5ccc(C(F)F)cc5)cnc4cn3)cc2)CC1
2.55
18) CN(C)C1CCN(C(=O)c2ccc(-c3cn4c(-c5ccc(C#N)cc5)cnc4cn3)cc2)CC1
0.73
19) CN1CCN(C(=O)c2ccc(-c3cn4c(-c5cccc(O)c5)cnc4cn3)cc2)CC1
2.31

---

Assay: Initial concentration in CD-1 mouse at 1 mg/kg, iv administered as single dose by LC-MS/MS analysis
Format: ADME, organism-based
Conditions: in vivo
Listing of entries alongside the reported C0.
Metric: C0 (ng/mL)

1. N#Cc1ccc(-c2cnc3ccc(-c4ccc(C(=O)N5CCOCC5)cc4)nn23)cc1
2940
2. N#Cc1ccc(-c2cnc3ccc(-c4ccc(C(=O)N5CCOCC5)cc4)cn23)cc1
2380

---

Reported values: pIC50 for MAP kinase-interacting serine/threonine-protein kinase 2 (Homo sapiens), one per item.
pIC50: −log10 of the molar value.
Metric: pIC50

1) CN1CCN(C(=O)c2ccc(-c3cn4c(-c5ccccc5O)cnc4cn3)cc2)CC1
5.29
2) CN1CCN(C(=O)c2ccc(-c3ccc4ncc(-c5ccc(C#N)cc5)n4n3)cc2)CC1
7.60
3) CN1CCN(C(=O)c2ccc(-c3cn4c(-c5ccc(Cl)cc5)cnc4cn3)cc2)CC1
6.66
4) N#Cc1ccc(-c2cnc3ccc(-c4ccc(C(=O)N5CCNCC5)cc4)nn23)cc1
7.59
5) CN1CCN(C(=O)c2ccc(-c3cn4c(-c5ccc(C(F)F)cc5)cnc4cn3)cc2)CC1
6.47
6) O=C(c1ccc(-c2cn3c(-c4ccc(O)cc4)cnc3cn2)cc1)N1CCOCC1
6.95
7) NC(=O)c1ccc(-c2cn3c(-c4ccc(O)cc4)cnc3cn2)cc1
6.71
8) O=C(Nc1cn2c(-c3ccc(O)cc3)cnc2cn1)c1ccccc1
5.97
9) CN1CCN(C(=O)c2ccc(-c3cn4c(-c5ccc(C(F)(F)F)cc5)cnc4cn3)cc2)CC1
6.41
10) CC(=O)Nc1cn2c(-c3ccc(O)cc3)cnc2cn1
6.29
11) CN(C)C1CCN(C(=O)c2ccc(-c3cn4c(-c5ccc(C#N)cc5)cnc4cn3)cc2)CC1
6.84
12) CN1CCN(C(=O)c2ccc(-c3cn4c(-c5ccc(C(=O)O)cc5)cnc4cn3)cc2)CC1
6.45
13) Cc1ccc(-c2cnc3cnc(-c4ccc(C(=O)N5CCN(C)CC5)cc4)cn23)cc1
6.39
14) CN1CCN(C(=O)c2ccc(-c3ccc4ncc(-c5ccc(C#N)cc5)n4c3)cc2)CC1
7.14
15) CN1CCN(C(=O)c2ccc(-c3cn4c(-c5ccc(C(=O)NO)cc5)cnc4cn3)cc2)CC1
7.51

---

Test: in vitro
Settings: mouse, liver microsomes
Description: Half life in mouse liver microsomes at 1 uM in presence of NADPH by LC-MS/MS analysis
Sorting guide: entries reporting half-life at 1 µM beneath 40 min go in the Yes pile, the rest go in the No pile.

1) N#Cc1ccc(-c2cnc3ccc(-c4ccc(C(=O)N5CCOCC5)cc4)nn23)cc1
No
2) N#Cc1ccc(-c2cnc3ccc(-c4ccc(C(=O)N5CCNCC5)cc4)nn23)cc1
No
3) CN1CCN(C(=O)c2ccc(-c3ccc4ncc(-c5ccc(C#N)cc5)n4c3)cc2)CC1
Yes
4) CN(C)C1CCN(C(=O)c2ccc(-c3cn4c(-c5ccc(C#N)cc5)cnc4cn3)cc2)CC1
No
5) CN1CCN(C(=O)c2ccc(-c3cn4c(-c5ccc(C#N)cc5)cnc4cn3)cc2)CC1
Yes
6) CN1CCN(C(=O)c2ccc(-c3ccc4ncc(-c5ccc(C#N)cc5)n4n3)cc2)CC1
Yes
7) N#Cc1ccc(-c2cnc3cnc(-c4ccc(C(=O)N5CCOCC5)cc4)cn23)cc1
No
8) NC(=O)c1ccc(-c2cn3c(-c4ccc(O)cc4)cnc3cn2)cc1
No
9) CN(C)C1CCN(C(=O)c2ccc(-c3ccc4ncc(-c5ccc(C#N)cc5)n4n3)cc2)CC1
No
10) N#Cc1ccc(-c2cnc3ccc(-c4ccc(C(=O)N5CCOCC5)cc4)cn23)cc1
No

---

Assay: AUClast in CD-1 mouse at 5 mg/kg, po administered via gavage as single dose by LC-MS/MS analysis
Type: ADME, organism-based
Set-up: dose 5 mg/kg, time 0 - last, route oral
Settings: in vivo
AUC(0-t) overview
Metric: AUC(0-t) (µg·h/mL)

1. CN(C)C1CCN(C(=O)c2ccc(-c3ccc4ncc(-c5ccc(C#N)cc5)n4n3)cc2)CC1
0.347
2. N#Cc1ccc(-c2cnc3ccc(-c4ccc(C(=O)N5CCOCC5)cc4)nn23)cc1
24.1
3. N#Cc1ccc(-c2cnc3ccc(-c4ccc(C(=O)N5CCOCC5)cc4)cn23)cc1
5.48

---

Experiment: Protein binding in human plasma at […] after 5 hrs by LC-MS/MS analysis
Type: ADME, cell-free
Conditions: read-out: PPB (converted)
Reported fraction unbound at 5 h values for the following compounds.
Metric: fraction unbound at 5 h

1. N#Cc1ccc(-c2cnc3ccc(-c4ccc(C(=O)N5CCOCC5)cc4)nn23)cc1
0.001
2. CN1CCN(C(=O)c2ccc(-c3ccc4ncc(-c5ccc(C#N)cc5)n4c3)cc2)CC1
0.003
3. CN1CCN(C(=O)c2ccc(-c3cn4c(-c5ccc(C#N)cc5)cnc4cn3)cc2)CC1
0.016
4. CN1CCN(C(=O)c2ccc(-c3ccc4ncc(-c5ccc(C#N)cc5)n4n3)cc2)CC1
0.001
5. N#Cc1ccc(-c2cnc3ccc(-c4ccc(C(=O)N5CCOCC5)cc4)cn23)cc1 [TINODASERTIB]
0.003

---

As shown below, each of these molecules has a reported IC50 value.
Target: Cytochrome P450 2D6 (Homo sapiens, UniProt P10635)
Sequence (P10635 whole entry): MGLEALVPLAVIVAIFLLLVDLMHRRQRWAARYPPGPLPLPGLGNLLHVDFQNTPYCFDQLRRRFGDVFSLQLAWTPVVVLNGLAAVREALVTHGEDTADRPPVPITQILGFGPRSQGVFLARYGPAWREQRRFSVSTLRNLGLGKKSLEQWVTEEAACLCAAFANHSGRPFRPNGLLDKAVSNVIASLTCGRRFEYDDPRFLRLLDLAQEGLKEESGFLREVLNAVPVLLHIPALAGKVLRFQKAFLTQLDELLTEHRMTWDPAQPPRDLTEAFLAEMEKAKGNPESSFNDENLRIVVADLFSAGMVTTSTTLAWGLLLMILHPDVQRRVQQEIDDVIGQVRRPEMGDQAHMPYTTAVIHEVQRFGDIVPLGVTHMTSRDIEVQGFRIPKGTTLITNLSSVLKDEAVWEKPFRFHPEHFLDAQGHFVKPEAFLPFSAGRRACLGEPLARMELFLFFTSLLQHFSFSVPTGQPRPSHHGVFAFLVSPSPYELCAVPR
Metric: IC50

1. N#Cc1ccc(-c2cnc3ccc(-c4ccc(C(=O)N5CCOCC5)cc4)nn23)cc1
> 20 µM
2. CN(C)C1CCN(C(=O)c2ccc(-c3cn4c(-c5ccc(C#N)cc5)cnc4cn3)cc2)CC1
> 20 µM
3. CN1CCN(C(=O)c2ccc(-c3ccc4ncc(-c5ccc(C#N)cc5)n4n3)cc2)CC1
> 20 µM
4. N#Cc1ccc(-c2cnc3ccc(-c4ccc(C(=O)N5CCOCC5)cc4)cn23)cc1 [TINODASERTIB]
> 20 µM
5. N#Cc1ccc(-c2cnc3cnc(-c4ccc(C(=O)N5CCOCC5)cc4)cn23)cc1
> 20 µM
